Quick reference: GI50 of the listed items.
tested on: HOP-18; assay: NCI tumour cell line growth inhibition, 48 h
Calls of active or inactive are those of the source. No stated cut-off is given here; in the data, active = GI50 up to about 1.1 µM and inactive = higher.

cpd.smiles: COc1ccc(/C=C2\CNC/C(=C\c3ccc(OC)cc3)C2=O)cc1
GI50: > 100 µM (inactive)
//
cpd.smiles: C[C@@]1(CBr)C[C@@](C)(/C=C/Cl)[C@@H](Cl)C[C@H]1Cl
GI50: 13.5 µM (inactive)
//
cpd.smiles: Cc1cc2c(=O)n(-c3ccc(F)cc3)c(C)nc2c(C(=O)O)c1C
GI50: > 100 µM (inactive)

Notebook entry, HOP-18 assay: GI50 of COc1ccc(-c2c(C3=NCCCN3)nnn2-c2ccccc2)cc1 = ? > 100 µM (inactive)

Then what about the compound CN1CCCNCCN(CCc2ccccn2)CCCN(C)CC1 ? > 100 µM (inactive)

Then what about the compound O=C1C(Cl)=C(Cl)C(=O)N1c1ccccc1Cl ? > 100 µM (inactive)
